Cited source for all entries: PubChem BioAssay AID1063

test: Leishmania major promastigote growth inhibition, primary screen (AID 1063);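 further: promastigotes grown with compound for 44 hours at 28 °C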
condition-details: Leishmania major promastigotes, resazurin fluorescence viability; at 10 µM
In all, about 200,000 compounds went through this assay and about 18,000 (9%) were called active. No stated cut-off is given here; in the data, active means inhibition above about 50%; inactive means the rest. The full list was thinned out, with actives kept by preference.
Valid outcomes are listed here; reply with one: active, inactive

{"columns": ["molecule", "class-assignment"],
 "data": [
  ["O=C(O)/C=C/C(=O)NNc1ccc([N+](=O)[O-])cc1", "inactive"],
  ["C=CCN(c1ccc(Cl)cc1)S(=O)(=O)c1cccc(C(=O)OCC(=O)N(C)C)c1", "inactive"],
  ["Cc1c(Cl)c([N+](=O)[O-])nn1CC(=O)NCC1CCCO1 (stereo unspecified)", "inactive"],
  ["CS(=O)(=O)n1nc(-c2ccccc2)nc1NCc1ccco1", "inactive"],
  ["COc1ccccc1-c1n[nH]c2c1[C@H](C)CC[C@H]2C(C)C", "active"]
]}

IN: How was `c1ccc(-c2nc(NCc3ccco3)c3ccccc3n2)cc1` classified in this test?
OUT: active

IN: Subsequent entry: `O=C(Nc1cccnc1)c1cccc(S(=O)(=O)N2CCCC2)c1`
OUT: inactive

IN: Subsequent entry: `CCOC(=O)c1nc(Nc2ccc(C(=O)OC)cc2)c2ccccc2n1`
OUT: inactive

IN: Subsequent entry: `CCC(=O)OCCNc1nc(-c2ccccc2)nc2ccccc12`
OUT: active

IN: Subsequent entry: `CCOC(=O)c1c(-c2cccc(N)c2)cn2ccccc12`
OUT: inactive

IN: Subsequent entry: `COc1ccccc1-c1nc(SC)n[nH]1`
OUT: inactive

---

test: Leishmania major promastigote growth inhibition, primary screen (AID 1063);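 further: promastigotes grown with compound for 44 hours at 28 °C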
condition-details: Leishmania major promastigotes, resazurin fluorescence viability; at 10 µM; stronger effect = higher value
Screen size: about 200,000 compounds; about 18,000 (9%) were called active. The full list was thinned out, with actives kept by preference.
We label by threshold. Values of inhibition strictly beneath 20% are Condition met. Values of 20% and up are Condition not met.

Examples from the recorded data:
{"columns": ["compound", "class-assignment"],
 "data": [
  ["CCNc1ccc(C(=O)OCC(=O)N2c3ccccc3NC(=O)C2(C)C)cc1[N+](=O)[O-]", "Condition not met"],
  ["CCOC(=O)c1sc(=S)n2c1[nH]c(=O)c1ccc(C(=O)OC)cc12", "Condition met"],
  ["COc1ccc(-n2nnnc2SCC(=O)NCc2cccs2)cc1", "Condition met"]
]}

IN: Hi there! Is inhibition for `Cc1ccc(-c2csc(SCC(=O)Nc3cc(C)on3)n2)cc1` below 20%, do you know?
OUT: Condition met

IN: Subsequent entry: `CCC(=O)/C(=C(/O)c1ccccc1)c1nc2ccccc2[nH]1`
OUT: Condition met

IN: Subsequent entry: `COc1cccc(-n2nc(C(=O)N3CCN(Cc4ccccc4)CC3)c3ccccc3c2=O)c1`
OUT: Condition met

IN: Subsequent entry: CC(Sc1nc2cc(Cl)ccc2s1)C(=O)Nc1ccc2c(c1)OCO2 (centres undefined)
OUT: Condition met

IN: Subsequent entry: `N=C(N)SCc1cccc2ccccc12`
OUT: Condition met

IN: Subsequent entry: `CCc1ccc(-c2nn(-c3ccccc3)cc2CSC(=N)N)cc1`
OUT: Condition not met

---

test: Leishmania major promastigote growth inhibition, primary screen (AID 1063);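 further: promastigotes grown with compound for 44 hours at 28 °C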
condition-details: Leishmania major promastigotes, resazurin fluorescence viability; at 10 µM
In all, about 200,000 compounds went through this assay and about 18,000 (9%) were called active. Cut-off read from the data, not from the text of the source: active = inhibition above about 50%; inactive = the rest. The sample as a whole holds a higher share of actives than the screen did.
Valid outcomes are listed here; reply with one: active, inactive

{"columns": ["compound", "class-assignment"],
 "data": [
  ["COc1ccc(NC(=O)c2cccc(NC(=O)c3ccco3)c2)c(OC)c1", "active"]
]}

IN: How was `COc1cc(NC(=O)c2cc([N+](=O)[O-])ccc2Br)ccc1NC(=O)c1ccco1` classified in this test?
OUT: active

IN: Subsequent entry: `COc1ccccc1C(=O)Nc1ccc(NC(=O)c2ccco2)c(C)c1`
OUT: inactive
